- ASSAY TEXT: UV-Vis absorption spectra and thermal relaxation of the cis isomers in DMSO
- Assay type: physicochemical
- MEASUREMENT SETUP: 60 μM in 100% DMSO, 37 °C; dark
MEASURED QUANTITY: λπ–π* (trans) (nm)

| MOLECULE | TEST RESULT |
| --- | --- |
| Cc1cc(OCC(O)C(C)(C)C)ccc1N=Nc1cccc(-c2ccc(C(=O)O)cc2)c1 (centres unmarked) [Compound 11b] | 362 |
| Cc1cc(/N=N/c2cccc(-c3ccc(C(=O)O)cc3C)c2)ccc1OCC(O)C(C)(C)C (centres unmarked) [Compound 11c] | 364 |
| COC(=O)c1ccc(-c2cccc(/N=N/c3ccc(OCC(O)C(C)(C)C)cc3C)c2)cc1 (centres unmarked) [Compound 10b] | 360 |
| Cc1cc(OCC(O)C(C)(C)C)ccc1/N=N/c1cccc(-c2ccc(C(=O)O)cc2C)c1 (centres unmarked) [Compound 11d] | 362 |
| Cc1cc(OCC(O)C(C)(C)C)ccc1/N=N/c1cccc(-c2ccc(CO)cc2C)c1 (centres unmarked) [Compound 12d] | 362 |
| Cc1cc(/N=N/c2cccc(-c3ccc(CO)cc3)c2)ccc1OCC(O)C(C)(C)C (centres unmarked) [Compound 12a] | 364 |
| COC(=O)c1ccc(-c2cccc(/N=N/c3ccc(OCC(O)C(C)(C)C)c(C)c3)c2)cc1 (centres unmarked) [Compound 10a] | 366 |
| COC(=O)c1ccc(-c2cccc(/N=N/c3ccc(OCC(O)C(C)(C)C)c(C)c3)c2)c(C)c1 (centres unmarked) [Compound 10c] | 366 |
